Tested on: B16-F10
Assay: In vitro inhibition of B16F10 melanoma cell replication by the compound
Format: functional, cell-based
Conditions: Mus musculus
Examples of compounds with documented IC50 follow.

Problem: Give its IC50 value. Item: CC1(CO)OC[C@@H](n2ccc(N)nc2=O)O1 (stereo partly drawn)
Result: > 100 µM

More entries:
Problem: Give its IC50 value. Item: CC1(CO)OC[C@@H](n2cc(F)c(N)nc2=O)O1 (stereo partly drawn)
Result: > 100 µM

Problem: Give its IC50 value. Item: C[C@]1(CO)OCC(n2cc(F)c(N)nc2=O)O1 (single isomer, unassigned)
Result: > 100 µM

Problem: Give its IC50 value. Item: C[C@]1(CO)OCC(n2ccc(N)nc2=O)O1 (stereo partly drawn)
Result: 100 µM

Problem: Give its IC50 value. Item: CC1(CO)OCC(n2ccc(N)nc2=O)O1 (stereo not drawn)
Result: 100 µM

Problem: Give its IC50 value. Item: CC1(CO)OCC(n2cc(F)c(N)nc2=O)O1 (stereo not drawn)
Result: > 100 µM

Problem: Give its IC50 value. Item: C[C@]1(CO)OCC(n2cc(F)c(N)nc2=O)O1 (stereo partly drawn)
Result: > 100 µM

Problem: Give its IC50 value. Item: C[C@]1(CO)OCC(n2ccc(N)nc2=O)O1 (single isomer, unassigned)
Result: 100 µM
